The measurements presented in this section are drawn from the RNAGym collection of RNA variant scans (doi:10.7554/elife.90254).

B1: LINE1-full (parent)
chain: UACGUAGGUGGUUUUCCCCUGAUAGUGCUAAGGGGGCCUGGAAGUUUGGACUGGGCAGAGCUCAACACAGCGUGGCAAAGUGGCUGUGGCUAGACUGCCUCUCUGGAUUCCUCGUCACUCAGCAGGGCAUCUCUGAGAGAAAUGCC

variants of: B1; assay: self-cleavage, relative activity (ratio to wild type); higher = more cleavage; in vitro, sequencing; the parent is a self-cleaving ribozyme
property-name: self-cleavage

>>> result("UACGUAGGUGGUUUUCCCCUGAUAGUGCUAAGGGGGCCUGGAAGUUUGGACUGGGCAGAGCUCAACACAGCGUGGCAAAGUGGCUGUGACUAGACUGCCUCUCUGGAUUCCUCGUCACUCAGCAGGGCAUCUCUGAGAGAGAUGCC [G89A A141G]")
0.02
>>> result("UACGUAGGUGGUUUUCCCCUGAUAGUGCUAAGGGGGCCUGGAAGUUUGGACUGGGCAGAGCUCAACACAGCGUGGCAAAGUGGCUGUGGCCAGACUGCCUCUCUGGAUUCCUCGUCACUCAGCAGGGCAUCUCUGAGAGAGAUGCC [U91C A141G]")
0.92
>>> result("UACGUAGGUGGUUUUCCCCUGAUAGUGCUAAGGGGGCCUGGAAGUUUGGACUGGGCAGAGCUCAACACAGCGUGGCAAGGUGGCUGUGGCUAGACUGCCUCUCUGGAUUCCUCGUCACUCGGCAGGGCAUCUCUGAGAGAAAUGCC [A79G A121G]")
1.21
>>> result("UACGUAGGUGGUCUUCCCCUGAUAGUGCUAAGGGGGCCUGGAAGUUUGGACUGGGCAGAGCUCUACACAGCGUGGCAAAGUGGCUGUGGCUAGACUGCCUCUCUGGAUUCCUCGUCACUCAGCAGGGCAUCUCUGAGAGAAAUGCC [U13C A64U]")
0.44
>>> result("UACGUAGGUGGUUUUCCCCUGGUAGUGCUAAGGGGGCCUGGAAGUUUGGACUGGGCAGAGCUCAACACAGCGUGGCAAAGUGGCUGUGGCUAGACUGCCUCUCUGGAUUCCUCGUCACUCAGCAGGGCAACUCUGAGAGAAAUGCC [A22G U130A]")
1.52
>>> result("UACGUAGGUGGUUUUCCCCUGAUAGUGCUAAGGGGGCCUGGAAGUUUGGACUGGGCAGAGCUCAACACAGCGUGGCGAAGUGGCUGUGGCUAGACUGCCUCUCUGGAUUCCUCGUCACUCAGCAGGGCAUCUCUGAGAAAAAUGCC [A77G G139A]")
1.52
>>> result("UACGUAGGUGGUUUUCCCCUGAUAGUGCUAAGGGUGCCUGGAAGUUUGGACUGGGCAGAGCUCAACACAGCGUGGCAAAGAGGCUGUGGCUAGACUGCCUCUCUGGAUUCCUCGUCACUCAGCAGGGCAUCUCUGAGAGAAAUGCC [G35U U81A]")
1.82
>>> result("UACGUAGAUGGUUUUCCCCUGAUAGUGCUAAGGGGGCCUGGAAGUUUGGACUGGGCAGAGCGCAACACAGCGUGGCAAAGUGGCUGUGGCUAGACUGCCUCUCUGGAUUCCUCGUCACUCAGCAGGGCAUCUCUGAGAGAAAUGCC [G8A U62G]")
0
>>> result("UACGUAGGUGGUUUUCCCCUGAUAGUGCUAAGGGGGUCUGGAAGUUUGGACUGGGCAGAGCUCAACACAGCGUGGCAGAGUGGCUGUGGCUAGACUGCCUCUCUGGAUUCCUCGUCACUCAGCAGGGCAUCUCUGAGAGAAAUGCC [C37U A78G]")
0.96
>>> result("UACGUAGGUGGUUUUCCCCUGAUAGUGCUAAGGGGGCCUGGAAGUUUGGACUGGGCAGAGCUCAACACAGCGUGGCAAAGUAGUUGUGGCUAGACUGCCUCUCUGGAUUCCUCGUCACUCAGCAGGGCAUCUCUGAGAGAAAUGCC [G82A C84U]")
0.51
>>> result("UACGUAGGUGGUUUUCUCCUGAUAGUGCUAAGGGGGCCUGGAAGUUUGGACUGGGCAGAGCUCAACACAGCGUGGCAAAGUGGCUGUGGCUAGACCGCCUCUCUGGAUUCCUCGUCACUCAGCAGGGCAUCUCUGAGAGAAAUGCC [C17U U96C]")
0.1
>>> result("UACGUAGGUGGUUUUCCCCUGAUAGUGCUAAGGGGGCCUGGAAGUUUGGACUGGGCAGGGCUCAACACAGCGUGGCAAAGUGGCUGUGGCUAGACUGCCUCUCUGGAUUCCUCGUCACCCAGCAGGGCAUCUCUGAGAGAAAUGCC [A59G U119C]")
0.13
>>> result("UACGUAGGUGGUUUUCCCCUGAUAGUGCUAAGGGGGCCUGGAAGUUUGGACUGGGCAGAGCUCACCACAGCGUGGCAAGGUGGCUGUGGCUAGACUGCCUCUCUGGAUUCCUCGUCACUCAGCAGGGCAUCUCUGAGAGAAAUGCC [A65C A79G]")
0
>>> result("UACGUAGGUGGUUUUCCCCUGAUAGCGCUAAGGGGGCCUGGAAGUUUGGACUGGGCAGAGCUCAACACAGCGUGGCAAAGUGGCUGUGGCUAGACUGCCUCUCUGGAUUCCUCGUCACUCAGCAGGGCAUCUCUAAGAGAAAUGCC [U26C G135A]")
1.65
>>> result("UACGUAGGUGGUUUUCCCCUGAUAGUGCUAAGGGGGCCUGGAAGUUUGGACUGGGCAGAGCCCAACACAGCGUGGCAAAGUGGCUGUGGCUAGACUGCCACUCUGGAUUCCUCGUCACUCAGCAGGGCAUCUCUGAGAGAAAUGCC [U62C U100A]")
0.05
>>> result("UACGUAGGUGGUUAUCCCCUGAUAGUGCUGAGGGGGCCUGGAAGUUUGGACUGGGCAGAGCUCAACACAGCGUGGCAAAGUGGCUGUGGCUAGACUGCCUCUCUGGAUUCCUCGUCACUCAGCAGGGCAUCUCUGAGAGAAAUGCC [U14A A30G]")
1.27
>>> result("UACGUAGGUGGUUUUCCCCUGAUAGUGCUAAGGGGGCCUGGAAGCUUGGACUGGGCAGAGCUCAACACAGCGUGGCAAAGUGGCUGUGGCUAGACUGCCUCUCUGGAUUCCUCGUCACUCAGCAGGGCAUCUCUGAGAGAAACGCC [U45C U143C]")
1.7
>>> result("UACGUAGGUGGUUUUCCCCUGAUAGUGCUAAGGGGGCCUGGAAGUUUGGACUGGGCAGAGCUCAACACAGCGUGGCAAAGUGGCUGUGGCUAGACUGCCUCUCUGGAUUCCUCGUCACUCAACAGGGCAUCUCCGAGAGAAAUGCC [G122A U134C]")
1.43
>>> result("UACGUAGGUGGUUUUCCCCUGAUAGUGCUAAGGGGGCCUGGAAGUUUGGACUGGGCAGAGCUCAACACAGCGUGGCAAAGUGGCUGUGGCCAGACUGCCUCUCUGGAUUCCUCGUCACUCAGCAGGGCAUCUCAGAGAGAAAUGCC [U91C U134A]")
0.57
>>> result("UAUGUAGGUGGUUUUCCCCUGAUAGUGCUAAGGGGGCCUGGAAGUUUGGACUGGGCAGAGCUCAACACAGCGUGGCAAAGUGGCUGUGGCUAGACUGCCUCUCUGGAUUCCACGUCACUCAGCAGGGCAUCUCUGAGAGAAAUGCC [C3U U112A]")
1.38
>>> result("UACGUAGGUGGUUUUCCUCUGAUAGUGCUAAGGGGGCCUGGAAGUUUGGACUGGGCAGAGCUCAACACAGCGUGGCAAAGUGGCUGUGGCUAGACUGCCUCUCUGGAUUCCUUGUCACUCAGCAGGGCAUCUCUGAGAGAAAUGCC [C18U C113U]")
0.75
>>> result("UACGUAGGUGGUUUUCCCCUGAUAGUGCUAAGGGGGCCUGGAAGUUUGGUCUGGGCAGAGCUCAACACAGCGUGGCAAAGUGGCUGUGGCUAGACUGCCUCUCUGGAUUCCUCGUCACUCAGCAGGGCAUCUCUGAGAGAAAUCCC [A50U G144C]")
0.79
>>> result("UACGUAGGUGGUUUUCCCCUGAUAGUGCUAAGGGGGCCUGGAAGUUAGGACUGGGCAGAGCUCAACACAGCGUGGCAAAGUGGCUGUGGCUAGACUGCCUCUCUGGAUUCCCCGUCACUCAGCAGGGCAUCUCUGAGAGAAAUGCC [U47A U112C]")
1.15
>>> result("UACGUAGGUGGUUUUCCCCUGAUAGUGCUAAGGGGGCCUGGAAGUUUGGACCAGGCAGAGCUCAACACAGCGUGGCAAAGUGGCUGUGGCUAGACUGCCUCUCUGGAUUCCUCGUCACUCAGCAGGGCAUCUCUGAGAGAAAUGCC [U52C G53A]")
0.6
>>> result("UACGUAGGUGGUUUUCCCCUGAUAGUGCUAAGGGGGCCUGGAAGUUUGGGCUGGGCAGAGCUCAAAACAGCGUGGCAAAGUGGCUGUGGCUAGACUGCCUCUCUGGAUUCCUCGUCACUCAGCAGGGCAUCUCUGAGAGAAAUGCC [A50G C66A]")
0.06
